These data points were gathered from patent US20180250395A1.

target: T1, recombinant human CD47 extracellular domain (ECD), His-tagged, monomer (human, UniProt Q08722 19-141); assay: ProteOn SPR; mAb captured, ECD monomer as analyte
T1 construct: C-terminal 6xHis tag; monomeric fraction from Superdex 200; also called human CD47 ECD; CD47-ECD monomer
Kindly supply the reported Kd values for the records listed here.
Answer by giving the amount and then stating its unit.

So for C47B242 (antibody, V domains shown, human IgG2sigma/kappa) VH: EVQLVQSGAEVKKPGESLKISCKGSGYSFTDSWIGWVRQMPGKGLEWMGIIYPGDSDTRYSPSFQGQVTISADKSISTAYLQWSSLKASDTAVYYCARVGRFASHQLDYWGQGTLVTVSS VL: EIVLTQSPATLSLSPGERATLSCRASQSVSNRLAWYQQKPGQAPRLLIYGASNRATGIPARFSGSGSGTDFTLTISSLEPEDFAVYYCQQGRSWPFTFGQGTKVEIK , the logged Kd turned out to be 3.47 nM

Kd reading for C47B244 (antibody, V domains shown, human IgG2sigma/kappa) VH: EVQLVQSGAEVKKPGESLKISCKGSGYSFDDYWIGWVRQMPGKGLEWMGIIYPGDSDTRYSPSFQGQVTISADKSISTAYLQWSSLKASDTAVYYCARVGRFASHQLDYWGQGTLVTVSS VL: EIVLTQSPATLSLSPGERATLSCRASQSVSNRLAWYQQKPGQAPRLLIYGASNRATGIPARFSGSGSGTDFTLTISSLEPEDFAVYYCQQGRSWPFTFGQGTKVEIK : 2.12 nM

// Kd value for C47B219 (antibody, V domains shown, human IgG2sigma/kappa) VH: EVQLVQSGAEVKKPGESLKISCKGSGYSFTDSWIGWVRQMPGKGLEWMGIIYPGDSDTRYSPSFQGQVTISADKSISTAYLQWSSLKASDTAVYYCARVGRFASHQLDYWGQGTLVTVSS VL: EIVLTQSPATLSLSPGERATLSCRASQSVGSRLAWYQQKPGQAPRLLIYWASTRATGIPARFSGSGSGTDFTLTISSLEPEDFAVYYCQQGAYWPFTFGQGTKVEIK : 2.58 nM

Value of Kd reported for the binder C47B213 (antibody, V domains shown, human IgG2sigma/kappa) VH: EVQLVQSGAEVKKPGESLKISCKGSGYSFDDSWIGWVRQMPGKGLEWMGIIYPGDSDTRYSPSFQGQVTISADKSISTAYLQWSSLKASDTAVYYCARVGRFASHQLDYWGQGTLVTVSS VL: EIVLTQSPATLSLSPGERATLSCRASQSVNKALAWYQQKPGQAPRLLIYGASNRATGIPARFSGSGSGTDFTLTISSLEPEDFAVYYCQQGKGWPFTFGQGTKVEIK is 2.33 nM

For record C47B221 (antibody, V domains shown, human IgG2sigma/kappa) VH: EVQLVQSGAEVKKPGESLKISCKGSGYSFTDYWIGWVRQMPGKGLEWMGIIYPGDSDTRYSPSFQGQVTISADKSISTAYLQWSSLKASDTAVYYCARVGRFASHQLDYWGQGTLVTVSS VL: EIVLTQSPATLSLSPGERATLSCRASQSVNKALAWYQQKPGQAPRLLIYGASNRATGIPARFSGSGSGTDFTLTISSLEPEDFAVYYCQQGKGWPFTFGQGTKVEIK the listed Kd is 5.21 nM

// sample C47B215 (antibody, V domains shown, human IgG2sigma/kappa) VH: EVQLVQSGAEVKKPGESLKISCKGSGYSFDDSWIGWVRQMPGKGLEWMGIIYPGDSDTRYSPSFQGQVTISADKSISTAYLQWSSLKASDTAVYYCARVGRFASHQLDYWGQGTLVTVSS VL: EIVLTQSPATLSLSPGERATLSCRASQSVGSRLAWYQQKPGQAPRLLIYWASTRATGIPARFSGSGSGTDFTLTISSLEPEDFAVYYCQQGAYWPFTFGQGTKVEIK , its Kd was 2.05 nM

Sure, the documented Kd for C47B238 (antibody, V domains shown, human IgG2sigma/kappa) VH: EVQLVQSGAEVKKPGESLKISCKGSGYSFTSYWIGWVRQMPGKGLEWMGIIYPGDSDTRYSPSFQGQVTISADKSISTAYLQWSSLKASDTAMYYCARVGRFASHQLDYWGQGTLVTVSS VL: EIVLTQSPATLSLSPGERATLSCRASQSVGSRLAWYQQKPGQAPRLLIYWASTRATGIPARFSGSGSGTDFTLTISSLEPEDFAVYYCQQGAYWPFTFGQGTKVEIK is 3.53 nM

Notebook: C47B236 (antibody, V domains shown, human IgG2sigma/kappa) VH: EVQLVQSGAEVKKPGESLKISCKGSGYSFKDDWIGWVRQMPGKGLEWMGIIYPGDSDTRYSPSFQGQVTISADKSISTAYLQWSSLKASDTAVYYCARVGRFASHQLDYWGQGTLVTVSS VL: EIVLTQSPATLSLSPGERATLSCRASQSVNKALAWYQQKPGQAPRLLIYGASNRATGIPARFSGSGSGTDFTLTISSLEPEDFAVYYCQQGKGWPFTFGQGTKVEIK , Kd read as 2.92 nM
